The following molecules each carry a recorded pIC50 for Amine oxidase [flavin-containing] B (Homo sapiens).
Answers are plain numbers, as −log10 of the molar value.

Study these solved cases before continuing.
molecule | pIC50
CCCCC1OC(=O)c2cc(OCc3ccc(CN(C)C)c(O)c3)ccc21 (stereo unspecified) | 5.16
CCCCC1OC(=O)c2cc(OCc3cccc(O)c3)ccc21 (stereo unspecified) | 5.48
CCCCC1OC(=O)c2cc(OCc3ccc(CN4CCCCC4)c(O)c3)ccc21 (stereo unspecified) | 6.52
CCCCC1OC(=O)c2cc(OCc3ccccc3O)ccc21 (stereo unspecified) | 5.68
CCCCC1OC(=O)c2cc(OCc3ccc(CN(CC)Cc4ccccc4)c(O)c3)ccc21 (stereo unspecified) | 5.71
CCCCC1OC(=O)c2cc(OCc3ccc(CN(CC)CC)c(O)c3)ccc21 (stereo unspecified) | 5.17
CCCCC1OC(=O)c2cc(OCc3ccc(CN4CCN(C)CC4)c(O)c3)ccc21 (stereo unspecified) | 5.62
CCCCC1OC(=O)c2cc(OCc3cccc(CN4CCOCC4)c3O)ccc21 (stereo unspecified) | 5.12
CCCCC1OC(=O)c2cc(OCc3ccc(CN4CCOCC4)c(O)c3)ccc21 (stereo unspecified) | 5.85
CCCCC1OC(=O)c2cc(OCc3ccc(CN4CCCC4)c(O)c3)ccc21 (stereo unspecified) | 6.03

## Task Quote pIC50 reported for CCCCC1OC(=O)c2cc(OCc3ccc(CN4CCN(CC)CC4)c(O)c3)ccc21 (stereo unspecified) please.
## Result 5.60

====

experimental system: UniProtKB P21397
Sequence (P21397 whole entry): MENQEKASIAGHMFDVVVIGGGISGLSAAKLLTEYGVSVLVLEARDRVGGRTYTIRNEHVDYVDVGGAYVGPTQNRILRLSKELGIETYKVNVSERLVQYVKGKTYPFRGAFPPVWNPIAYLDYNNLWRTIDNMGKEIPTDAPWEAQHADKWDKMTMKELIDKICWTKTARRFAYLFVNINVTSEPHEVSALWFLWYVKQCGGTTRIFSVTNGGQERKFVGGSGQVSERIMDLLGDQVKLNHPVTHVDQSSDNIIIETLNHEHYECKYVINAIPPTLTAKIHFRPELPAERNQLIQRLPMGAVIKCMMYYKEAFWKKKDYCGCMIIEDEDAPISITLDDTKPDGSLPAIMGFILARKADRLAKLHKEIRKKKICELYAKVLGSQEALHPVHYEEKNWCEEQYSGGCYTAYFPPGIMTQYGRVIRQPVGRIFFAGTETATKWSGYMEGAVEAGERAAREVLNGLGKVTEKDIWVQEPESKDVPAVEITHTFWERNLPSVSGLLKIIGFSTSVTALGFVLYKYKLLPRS
assay name: Inhibition of human MAO-A at 10 uM by fluorescence assay
Please enter 1 where inhibition at 10 µM is greater than or equal to 20%, and -1 where it is lower.

Examples from the recorded data:
molecule | label value
CCCCC1OC(=O)c2cc(OCc3ccc(CN4CCCCC4)c(O)c3)ccc21 (configuration not stated) | -1
CCCCC1OC(=O)c2cc(OCc3cccc(CN4CCN(C)CC4)c3O)ccc21 (configuration not stated) | -1
CCCCC1OC(=O)c2cc(OCc3ccc(CN4CCN(CC)CC4)c(O)c3)ccc21 (configuration not stated) | -1
CCCCC1OC(=O)c2cc(OCc3ccc(CN(C)C)c(O)c3)ccc21 (configuration not stated) | 1
CCCCC1OC(=O)c2cc(OCc3ccc(CN4CCCC4)c(O)c3)ccc21 (configuration not stated) | 1

## Task Hello, I need to know if CCCCC1OC(=O)c2cc(OCc3ccccc3O)ccc21 (configuration not stated) has measured inhibition at 10 µM not below 20%. Thanks!
## Result 1

## Task Hello, I need to know if CCCCC1OC(=O)c2cc(OCc3cccc(O)c3)ccc21 (configuration not stated) has measured inhibition at 10 µM not below 20%. Thanks!
## Result 1

## Task Hello, I need to know if CCCCC1OC(=O)c2cc(OCc3ccc(CN(CC)CC)c(O)c3)ccc21 (configuration not stated) has measured inhibition at 10 µM not below 20%. Thanks!
## Result 1

## Task Hello, I need to know if CCCCC1OC(=O)c2cc(OCc3ccc(CN4CCN(C)CC4)c(O)c3)ccc21 (configuration not stated) has measured inhibition at 10 µM not below 20%. Thanks!
## Result 1

## Task Hello, I need to know if CCCCC1OC(=O)c2cc(OCc3ccc(CN4CCOCC4)c(O)c3)ccc21 (configuration not stated) has measured inhibition at 10 µM not below 20%. Thanks!
## Result 1

## Task Hello, I need to know if CCCCC1OC(=O)c2cc(OCc3cccc(CN4CCOCC4)c3O)ccc21 (configuration not stated) has measured inhibition at 10 µM not below 20%. Thanks!
## Result -1

## Task Hello, I need to know if CCCCC1OC(=O)c2cc(OCc3cccc(CN4CCN(CC)CC4)c3O)ccc21 (configuration not stated) has measured inhibition at 10 µM not below 20%. Thanks!
## Result -1

## Task Hello, I need to know if CCCCC1OC(=O)c2cc(OCc3cccc(CN4CCCC4)c3O)ccc21 (configuration not stated) has measured inhibition at 10 µM not below 20%. Thanks!
## Result 1

## Task Hello, I need to know if CCCCC1OC(=O)c2cc(OCc3cccc(CN(CC)Cc4ccccc4)c3O)ccc21 (configuration not stated) has measured inhibition at 10 µM not below 20%. Thanks!
## Result -1

## Task Hello, I need to know if CCCCC1OC(=O)c2cc(OCc3ccc(CN(CC)Cc4ccccc4)c(O)c3)ccc21 (configuration not stated) has measured inhibition at 10 µM not below 20%. Thanks!
## Result -1

====

experimental system: Amine oxidase [flavin-containing] B (Homo sapiens, UniProt P27338)
Sequence (P27338 whole entry): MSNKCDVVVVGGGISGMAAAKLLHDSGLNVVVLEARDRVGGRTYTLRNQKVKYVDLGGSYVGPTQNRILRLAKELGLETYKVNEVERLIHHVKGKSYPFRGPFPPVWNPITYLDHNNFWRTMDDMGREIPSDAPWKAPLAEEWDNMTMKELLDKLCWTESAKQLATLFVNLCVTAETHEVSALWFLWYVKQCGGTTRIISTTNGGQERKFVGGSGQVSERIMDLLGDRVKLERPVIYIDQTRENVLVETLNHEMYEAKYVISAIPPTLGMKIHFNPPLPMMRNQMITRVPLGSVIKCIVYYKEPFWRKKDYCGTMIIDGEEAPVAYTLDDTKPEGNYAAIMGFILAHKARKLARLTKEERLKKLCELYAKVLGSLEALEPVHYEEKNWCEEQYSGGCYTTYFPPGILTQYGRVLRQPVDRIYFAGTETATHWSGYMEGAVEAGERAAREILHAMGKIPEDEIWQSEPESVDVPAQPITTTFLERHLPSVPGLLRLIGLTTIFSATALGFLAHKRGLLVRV
assay name: Inhibition of human MAO-B at 10 uM by fluorescence assay
Please enter 1 where inhibition at 10 µM is greater than or equal to 10%, and 0 where it is lower.

## Task Hello, I need to know if CCCCC1OC(=O)c2cc(OCc3cccc(CN4CCCC4)c3O)ccc21 (stereo unspecified) has measured inhibition at 10 µM not below 10%. Thanks!
## Result 0

## Task Hello, I need to know if CCCCC1OC(=O)c2cc(OCc3cccc(CN4CCN(CC)CC4)c3O)ccc21 (stereo unspecified) has measured inhibition at 10 µM not below 10%. Thanks!
## Result 1

====

experimental system: Acetylcholinesterase (Electrophorus electricus)
assay name: Inhibition of Electric eel AChE at 10 uM by Ellman's method
Please enter fulfilled where inhibition is greater than or equal to 20%, and not fulfilled where it is lower.

Examples from the recorded data:
compound | label value
CCCCC1OC(=O)c2cc(OCc3cccc(CN4CCN(CC)CC4)c3O)ccc21 (stereo not given) | fulfilled
CCCCC1OC(=O)c2cc(OCc3cccc(O)c3)ccc21 (stereo not given) | fulfilled
CCCCC1OC(=O)c2cc(OCc3cccc(CN4CCN(C)CC4)c3O)ccc21 (stereo not given) | fulfilled

Now look at this entry.
## Task Hello, I need to know if CCCCC1OC(=O)c2cc(OCc3cccc(CN(CC)Cc4ccccc4)c3O)ccc21 (stereo not given) has measured inhibition not below 20%. Thanks!
## Result not fulfilled

====

experimental system: Butyrylcholinesterase (Rattus norvegicus) (UniProt Q9JKC1)
Sequence (Q9JKC1 as listed by the source): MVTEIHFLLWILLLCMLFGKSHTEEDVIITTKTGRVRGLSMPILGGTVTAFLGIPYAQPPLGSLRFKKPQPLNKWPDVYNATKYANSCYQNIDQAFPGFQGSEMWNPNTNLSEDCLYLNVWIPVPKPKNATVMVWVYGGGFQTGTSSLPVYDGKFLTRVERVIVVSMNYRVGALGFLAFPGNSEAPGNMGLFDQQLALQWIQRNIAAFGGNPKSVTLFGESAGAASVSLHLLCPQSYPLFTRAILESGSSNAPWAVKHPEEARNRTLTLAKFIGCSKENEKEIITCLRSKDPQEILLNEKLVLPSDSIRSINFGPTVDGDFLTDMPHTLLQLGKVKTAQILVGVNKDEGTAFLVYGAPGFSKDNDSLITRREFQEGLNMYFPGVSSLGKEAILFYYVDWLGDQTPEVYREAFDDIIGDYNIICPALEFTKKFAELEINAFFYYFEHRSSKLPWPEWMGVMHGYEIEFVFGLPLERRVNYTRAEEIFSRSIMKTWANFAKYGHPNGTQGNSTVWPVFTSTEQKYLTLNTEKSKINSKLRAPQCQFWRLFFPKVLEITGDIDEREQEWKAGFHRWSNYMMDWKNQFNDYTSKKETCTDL
assay name: Inhibition of Rat BuChE at 10 uM by Ellman's method
Assign inhibition to each entry below.

Study these solved cases before continuing.
molecule | observed property | reading
CCCCC1OC(=O)c2cc(OCc3ccc(CN(C)C)c(O)c3)ccc21 (stereo unspecified) | inhibition | 11.8%
CCCCC1OC(=O)c2cc(OCc3ccc(CN(CC)Cc4ccccc4)c(O)c3)ccc21 (stereo unspecified) | inhibition | 5.6%
CCCCC1OC(=O)c2cc(OCc3ccc(CN4CCCC4)c(O)c3)ccc21 (stereo unspecified) | inhibition | 10%
CCCCC1OC(=O)c2cc(OCc3ccccc3O)ccc21 (stereo unspecified) | inhibition | < 5%
CCCCC1OC(=O)c2cc(OCc3cccc(CN4CCN(C)CC4)c3O)ccc21 (stereo unspecified) | inhibition | < 5%
CCCCC1OC(=O)c2cc(OCc3cccc(CN4CCCC4)c3O)ccc21 (stereo unspecified) | inhibition | 5.8%

Go through the list and state inhibition for each entry.
1. CCCCC1OC(=O)c2cc(OCc3cccc(CN4CCOCC4)c3O)ccc21 (stereo unspecified)
2. CCCCC1OC(=O)c2cc(OCc3cccc(CN4CCCCC4)c3O)ccc21 (stereo unspecified)
3. CCCCC1OC(=O)c2cc(OCc3cccc(CN(CC)Cc4ccccc4)c3O)ccc21 (stereo unspecified)
4. CCCCC1OC(=O)c2cc(OCc3ccc(CN4CCOCC4)c(O)c3)ccc21 (stereo unspecified)

## Result
1: 5.8%; 2: 14.2%; 3: < 5%; 4: < 5%

## Task Give inhibition; test system Butyrylcholinesterase (Rattus norvegicus) (UniProt Q9JKC1); molecule CCCCC1OC(=O)c2cc(OCc3cccc(O)c3)ccc21 (stereo unspecified)
## Result < 5%
